Where do these numbers come from? They come from patent US9540343B2.

Catalogue of CC50 at 5 days readings, one per entry.
Experiment: in vitro
Details: human, uninfected MT-4 cells, CC50 (nM), same protocol as Test A, CellTiter-Glo
Protocol: For the antiviral assay, 40 μL of 1× test concentration of 3-fold serially diluted compound in culture medium with 10% FBS was added to each well of a 384-well plate (10 concentrations) in quadruplicate. […] Cell lysis was carried out by incubating at room temperature for 10 min and then chemiluminescence was read. […] Compound cytotoxicity and the corresponding CC50 values was determined using the same protocol as described in the antiviral assay (Test A) except that uninfected cells were used.
Numbers only; they are read as nM.

Examples from the recorded data:
{"molecule": "NC(=O)c1cc(-c2cccnc2[C@H](Cc2cc(F)cc(F)c2)NC(=O)Cn2c3c(c4ccccc42)CCCC3)ccc1F", "unit_text": "nM", "CC50 at 5 days": 27000}
{"molecule": "COCc1ccc(-c2cccnc2[C@H](Cc2cc(F)cc(F)c2)NC(=O)Cn2nc(C(F)F)c3c2C(F)(F)C2CC32)cc1 (stereo partly shown)", "unit_text": "nM", "CC50 at 5 days": 23000}
{"molecule": "Cc1cc(C)c2c(c1)C(CC(=O)N[C@@H](Cc1cc(F)cc(F)c1)c1ncccc1-c1ccc(F)c(C(N)=O)c1)C(=O)N2 (stereo partly shown)", "unit_text": "nM", "CC50 at 5 days": 13100}
{"molecule": "NC(=O)c1cc(-c2cccnc2[C@H](Cc2cc(F)cc(F)c2)NC(=O)Cn2nc(C(F)(F)F)c3c2C(F)(F)CCC3=O)ccc1F [Example 340B]", "unit_text": "nM", "CC50 at 5 days": 32800}
{"molecule": "O=C(Cn1nc(C(F)F)c2c1C(F)(F)C1CC21)N[C@@H](Cc1cc(F)cc(F)c1)c1ncccc1-c1ccc2[nH]ncc2c1 (stereo partly shown)", "unit_text": "nM", "CC50 at 5 days": 10200}
{"molecule": "NCc1ccc2c(CC(=O)N[C@@H](Cc3cc(F)cc(F)c3)c3ncccc3-c3ccc(Cl)cc3)c[nH]c2c1", "unit_text": "nM", "CC50 at 5 days": 10200}
{"molecule": "CN(C)CCNC(=O)c1cccc(-c2cccnc2[C@H](Cc2cc(F)cc(F)c2)NC(=O)Cn2nc(C(F)(F)F)c3c2CCCC3)c1 [Example 401C]", "unit_text": "nM", "CC50 at 5 days": 9720}
{"molecule": "CS(=O)(=O)c1ccc(-c2cccnc2[C@H](Cc2cc(F)cc(F)c2)NC(=O)Cc2c[nH]c3ccc(F)cc23)cc1", "unit_text": "nM", "CC50 at 5 days": 14500}

Measured CC50 at 5 days, NC(=O)c1cc(-c2cccnc2[C@H](Cc2cc(F)cc(F)c2)NC(=O)CC2C(=O)Nc3cc(F)ccc32)ccc1F (stereo partly shown) : 47900

Measured CC50 at 5 days, NC(=O)c1cc(-c2cccnc2[C@H](Cc2cc(F)cc(F)c2)NC(=O)Cc2n[nH]c3ccc(C(F)(F)F)cc23)ccc1F [Example 141G] : 21800

Measured CC50 at 5 days, CNC(=O)c1cc(F)cc(-c2cccnc2[C@H](Cc2cc(F)cc(F)c2)NC(=O)Cc2c[nH]c3ccc(F)cc23)c1 : 14800
